Values were extracted from patent US8383637B2.

Target: β-secretase(BACE) (Homo sapiens, UniProt P56817)
Construct: purchased Panvera
Sequence (P56817 46-501): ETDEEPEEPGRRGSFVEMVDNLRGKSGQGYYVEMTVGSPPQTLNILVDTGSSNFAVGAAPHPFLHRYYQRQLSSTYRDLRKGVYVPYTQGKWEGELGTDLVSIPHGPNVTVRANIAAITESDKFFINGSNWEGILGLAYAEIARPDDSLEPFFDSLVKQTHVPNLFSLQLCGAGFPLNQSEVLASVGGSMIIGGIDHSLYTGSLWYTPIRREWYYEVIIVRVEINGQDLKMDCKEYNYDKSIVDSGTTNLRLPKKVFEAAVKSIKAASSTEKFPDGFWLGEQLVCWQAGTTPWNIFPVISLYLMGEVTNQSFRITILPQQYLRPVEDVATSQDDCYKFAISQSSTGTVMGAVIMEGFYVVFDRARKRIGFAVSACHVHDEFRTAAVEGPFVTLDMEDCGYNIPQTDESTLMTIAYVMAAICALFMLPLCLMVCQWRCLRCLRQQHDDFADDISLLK
Test: BACE FS1% Inhibition Assay
Type: biochemical
Conditions: 3 μM test compound; FS1 substrate; read-out: % Inhibition (FS)
PROPERTY: inhibition at 3 µM (%)

entry_smiles=COc1ccccc1-c1ccc2c(c1)CN([C@@H](CCC(=O)N(C)CCc1ccccc1)C1CCCCC1)C(N)=N2 test_system="β-secretase(BACE) (Homo sapiens, UniProt P56817)" endpoint_result=127
entry_smiles=COC(=O)[C@H]1CC[C@@H](N(C)C(=O)CC[C@@H](C2CCCCC2)N2Cc3cc(Oc4ccccc4)ccc3N=C2N)CC1 test_system="β-secretase(BACE) (Homo sapiens, UniProt P56817)" endpoint_result=112
entry_smiles=NC1=Nc2ccc(Oc3ccccc3)cc2CN1[C@@H](CCC(=O)N(Cc1nnn[nH]1)C1CCCCC1)C1CCCCC1 test_system="β-secretase(BACE) (Homo sapiens, UniProt P56817)" endpoint_result=121
entry_smiles=CN(C(=O)CC[C@@H](C1CCC2(CC1)OCCO2)N1Cc2cc(Oc3ccccc3)ccc2N=C1N)C1CCCCC1 test_system="β-secretase(BACE) (Homo sapiens, UniProt P56817)" endpoint_result=114
entry_smiles=NC1=Nc2ccc(Oc3ccccc3)cc2CN1[C@@H](CCC(=O)N(CCOCc1ccccc1)[C@H]1CC[C@@H](C(=O)O)CC1)C1CCOCC1 test_system="β-secretase(BACE) (Homo sapiens, UniProt P56817)" endpoint_result=116

---

Biological target: β-secretase(BACE) (Homo sapiens)
Construct: purchased Panvera
Assay: BACE % Inhibition Assay ((Aedens)-[…]-(Dabcyl K-amide) substrate)
Format: biochemical
Conditions: 3 μM test compound; % error ±10%; read-out: % Inhibition
Method: The substrate stock solution was prepared in DMSO as a 10 mg/mL solution. The substrate working solution was prepared by diluting the 10 mg/mL stock solution with substrate assay buffer to a final concentration of 300 μg/mL. The β-secretase (BACE) working solution was prepared by diluting a 0.83 mg/mL BACE stock solution with enzyme assay buffer to a final concentration of 4 μg/mL. […] For test compounds, % inhibition was determined at each concentration as follows: […]
PROPERTY: inhibition at 3 µM (%)

compound="NC1=Nc2ccc(Oc3ccccc3)cc2CN1C(CCNC(=O)C1CCCC1)C1CCCCC1 (stereo not drawn)" property="inhibition at 3 µM" endpoint_result=120

I. CN(CCN1Cc2cc(C(=O)c3ccccc3)ccc2N=C1N)C(=O)C1CCCCC1
II. NC1=Nc2ccc(C(=O)c3ccccc3)cc2CN1CCCCNC(=O)C1CCCCC1
Query string: Compare I and II and name the one whose reported inhibition at 3 µM is smaller. Your choice should be expressed through its label.
Result string: II
(II: 32%, I: 47%)

---

Target: β-secretase(BACE) (Homo sapiens)
Construct: purchased Panvera
Experiment: BACE FS1% Inhibition Assay
Assay type: biochemical
Settings: 3 μM test compound; FS1 substrate
Method: BACE FS1% Inhibition Assay The following reagents were used in this assay: sodium acetate, PEG8000 (Sigma), DMSO, HEPES, FS1 substrate [[…]] […] The FS1-substrate stock solution was prepared in DMSO as a 10 mg/mL solution. The FS1-substrate working solution was prepared by diluting the 10 mg/mL stock solution with substrate assay buffer to a final concentration of 300 μg/mL. […] For test compounds, % inhibition was determined at each concentration as follows: [formula]
PROPERTY: % Inhibition (FS) (%)

compound="COc1ccccc1-c1ccc2c(c1)CN(CCNC(=O)C1CCC(C(F)(F)F)CC1)C(N)=N2 (stereo not shown)" test_system="β-secretase(BACE) (Homo sapiens)" endpoint_result=64

P. CN(C(=O)CC[C@@H](C1CCCCC1)N1Cc2cc(Oc3ccccc3)ccc2N=C1N)C1CCC(C(=O)O)CC1 (stereo partly shown)
Q. COc1ccccc1-c1ccc2c(c1)CN([C@@H](CCC(=O)N(C)Cc1cnn(-c3ccccc3)c1)C1CCCCC1)C(N)=N2
Query string: Larger number for % Inhibition (FS): P , or Q ? Your choice should be expressed through its label.
Result string: P
